system: human SKM-1 acute myeloid leukemia cells; assay: SKM-1 antiproliferation cell-based assay (ATPlite); conditions: Homo sapiens, SKM-1, 96 h, SKM-1 antiproliferation assay, 4 days, Table C2
MEASURED_ATTRIBUTE: GI50

// worked examples, GI50 included
1. Cn1ccn(-c2ccc(-c3cc(F)cc(-c4cccc(C5(N)CC5)c4)c3O)cc2Cl)c1=O
30 to 300 nM
2. Cc1ccc(-c2cc(F)cc(-c3ccc(-n4ccn(C)c4=O)c(Cl)c3)c2O)cc1C(N)=O
30 to 300 nM
3. CCc1ncc(-c2cc(F)cc(-c3ccc(-n4ccn(C)c4=O)c(Cl)c3)c2O)cc1N1CCN(C(C)(C)C)CC1
0.3 to 30 nM

Entry Cn1ccn(-c2ccc(-c3cc(F)cc(-c4ccnc(N5CCC6(CCC(=O)N6)C5)c4)c3O)cc2Cl)c1=O (centres unmarked) , GI50 reported as 0.3 to 30 nM

Entry CC(=O)Nc1ccc(-c2cccc(-c3cc(N4CCNCC4)nc4[nH]ccc34)c2O)cc1F , GI50 reported as 300 to 3000 nM

Entry Cn1ccn(-c2ccc(-c3cc(Cl)cc(-c4ccnc(N5CC[C@H](N)C5)c4)c3O)cc2Cl)c1=O , GI50 reported as 0.3 to 30 nM

Entry CN1CCN(c2cc(-c3cc(F)cc(-c4ccc(-n5ccn(C)c5=O)c(Cl)c4)c3O)cc3c2cnn3C)CC1 , GI50 reported as 0.3 to 30 nM

Entry CC(C)N1CCN(c2cc(-c3cc(F)cc(-c4ccc(-n5ccn(C)c5=O)c(Cl)c4)c3O)cnc2Cl)CC1 , GI50 reported as 0.3 to 30 nM

Entry Cn1ccn(-c2ccc(-c3cc(F)cc(-c4cc(F)cc(N5CCNCC5)c4)c3O)cc2Cl)c1=O , GI50 reported as 0.3 to 30 nM

Entry O=C1CCN1c1ccc(-c2cc(F)cc(-c3ccnc(N4CCNCC4)c3)c2O)cc1Cl , GI50 reported as 300 to 3000 nM

Entry Cn1ccn(-c2ccc(-c3cc(F)cc(-c4ccnc(N5CCC(C)(NS(C)(=O)=O)C5)c4)c3O)cc2Cl)c1=O (centres unmarked) , GI50 reported as 300 to 3000 nM

Entry CC(=O)Nc1cc(-c2cc(F)cc(-c3ccc(-n4ccn(C)c4=O)c(Cl)c3)c2O)cc(N2CCNCC2)n1 , GI50 reported as 0.3 to 30 nM

Entry Cn1ccn(-c2ccc(-c3cc(F)cc(-c4cc(Cl)cc(N5CCN(C(C)(C)C)CC5)c4)c3O)cc2Cl)c1=O , GI50 reported as 0.3 to 30 nM

Entry Cn1ccn(-c2ccc(-c3cc(F)cc(-c4cncc(N5CCNC6(CC6)C5)c4)c3O)cc2Cl)c1=O , GI50 reported as 0.3 to 30 nM

Entry Cn1ccn(-c2ccc(-c3cc(F)cc(-c4ccnc(N5CCCC6(CCCN6)C5)c4)c3O)cc2Cl)c1=O (centres unmarked) , GI50 reported as 0.3 to 30 nM

Entry Cn1ccn(-c2ccc(-c3cc(F)cc(-c4ccnc(N5CC[C@@H](O)C5)c4)c3O)cc2Cl)c1=O , GI50 reported as 30 to 300 nM

Entry Cn1ccn(-c2ccc(-c3cc(F)cc(-c4cc(N5CCN6CCCCC6C5)c5cnn(C)c5c4)c3O)cc2Cl)c1=O (centres unmarked) , GI50 reported as 0.3 to 30 nM

Entry CN1CCCC12CCN(c1cc(-c3cc(F)cc(-c4ccc(-n5ccn(C)c5=O)c(Cl)c4)c3O)ccn1)C2 (centres unmarked) , GI50 reported as 0.3 to 30 nM

Entry C[C@@H]1CN(c2cc(-c3cc(F)cc(-c4ccc(-n5ccn(C)c5=O)c(Cl)c4)c3O)cc3[nH]ncc23)CCN1 , GI50 reported as 0.3 to 30 nM

Entry Cn1ccn(-c2ccc(-c3cc(F)cc(-c4ccnc(N5C[C@@H](O)[C@H](F)C5)c4)c3O)cc2Cl)c1=O , GI50 reported as 30 to 300 nM

Entry Cn1ccn(-c2ccc(-c3cc(F)cc(-c4cccc(N5CC[C@@](C)(N)C5)c4)c3O)cc2Cl)c1=O , GI50 reported as 0.3 to 30 nM

Entry Cn1ccn(-c2ccc(-c3cc(F)cc(-c4ccnc(N5CCCC(C)(O)C5)c4)c3O)cc2Cl)c1=O (centres unmarked) , GI50 reported as 30 to 300 nM

Entry Cn1ccn(-c2ccc(-c3cc(F)cc(-c4ccnc(N5CC6(CCNC6)CC5=O)c4)c3O)cc2Cl)c1=O (centres unmarked) , GI50 reported as 30 to 300 nM

Entry CC(=O)N[C@]1(C)CCN(c2cncc(-c3cc(F)cc(-c4ccc(-n5ccn(C)c5=O)c(Cl)c4)c3O)c2)C1 , GI50 reported as 0.3 to 30 nM

Entry C[C@@H]1CN(c2cncc(-c3cc(Cl)cc(-c4ccc(-n5ccn(C)c5=O)c(Cl)c4)c3O)c2)CCN1 , GI50 reported as 0.3 to 30 nM

###

tested on: human SKM-1 acute myeloid leukemia cells; assay: SKM-1 antiproliferation cell-based assay (ATPlite); details: Homo sapiens, SKM-1, 96 h, SKM-1 antiproliferation assay, 4 days, Table C2
GI50 values, listed per item

1) Cn1ccn(-c2ccc(-c3cc(F)cc(-c4cc(N5CCC[C@H](N)C5)c5cn[nH]c5c4)c3O)cc2Cl)c1=O [Example 578]
0.3 to 30 nM

Entry CC(C)N1CCN(c2cc(-c3cc(F)cc(-c4ccc(-n5ccn(C)c5=O)c(Cl)c4)c3O)ccc2F)CC1 [Example 720] , GI50 reported as 0.3 to 30 nM

Entry Cn1ccn(-c2ccc(-c3cc(F)cc(-c4cc(N5CC[C@](C)(N)C5)n(C)c(=O)c4)c3O)cc2Cl)c1=O [Example 765] , GI50 reported as 0.3 to 30 nM

Entry Cn1ccn(-c2ccc(-c3cc(F)cc(-c4ccnc(N5CCN(CC6CC6)CC5)c4)c3O)cc2Cl)c1=O [Example 470] , GI50 reported as 0.3 to 30 nM

Entry CN[C@H]1CCN(c2cc(-c3cc(F)cc(-c4ccc(-n5ccn(C)c5=O)c(Cl)c4)c3O)cc(NC(C)=O)n2)C1 [Example 519] , GI50 reported as 0.3 to 30 nM

Entry CC(C)N1CCN(c2cc(-c3cc(F)cc(-c4ccc(-n5ccn(C)c5=O)c(Cl)c4)c3O)cnn2)CC1 [Example 797] , GI50 reported as 0.3 to 30 nM

Entry Cn1ccn(-c2ccc(-c3cc(F)cc(-c4cc(N5CCNC(C)(C)C5)c5cn[nH]c5c4)c3O)cc2Cl)c1=O [Example 589] , GI50 reported as 0.3 to 30 nM

Entry CN1CCN(c2ccc(-c3cc(F)cc(-c4ccnc(NCCN)c4)c3O)cc2Cl)C1=O [Example 363] , GI50 reported as 300 to 3000 nM

Entry CN1CCN(c2cc(-c3cc(F)cc(-c4ccc(-n5ccn(C)c5=O)c(Cl)c4)c3O)cc3[nH]ncc23)CC1 [Example 588] , GI50 reported as 0.3 to 30 nM

Entry O=C1CCCCN1c1ccc(-c2cccc(-c3ccnc(N4CCNCC4)c3)c2O)cc1F [Example 263] , GI50 reported as 300 to 3000 nM

Entry CC(=O)NC1(C)CN(c2cc(-c3cc(F)cc(-c4ccc(-n5ccn(C)c5=O)c(Cl)c4)c3O)ccn2)C1 [Example 768] , GI50 reported as 30 to 300 nM

Entry Cn1ccn(-c2ccc(-c3cc(F)cc(-c4cc(N5CCNCC5)c5cn[nH]c5c4)c3O)cc2Cl)c1=O [Example 526] , GI50 reported as 0.3 to 30 nM

Entry C[C@@H]1CN(c2cc(-c3cc(F)cc(-c4ccc(-n5ccn(C)c5=O)c(Cl)c4)c3O)cc3cccnc23)CCN1 [Example 591] , GI50 reported as 0.3 to 30 nM

###

GI50 values, listed per item
tested on: human SKM-1 acute myeloid leukemia cells; assay: SKM-1 antiproliferation cell-based assay (ATPlite); conditions: Homo sapiens, SKM-1, 96 h, SKM-1 antiproliferation assay, 4 days, Table C2

// worked examples, GI50 included
1) O=C1CCCCN1c1ccc(-c2cc(F)cc(-c3ccnc(N4CCNCC4)c3)c2O)cc1Cl
300 to 3000 nM
2) C[C@@H]1CN(c2cc(-c3cc(Cl)cc(-c4ccc(-n5ccn(C)c5=O)c(F)c4)c3O)ccn2)CCN1
30 to 300 nM
3) COC(=O)c1cc(-c2ccnc(N3CCNCC3)c2)c(O)c(-c2ccc(NC(C)=O)c(F)c2)c1
≥ 3000 nM
4) Cc1cc(-c2ccc(-n3ccn(C)c3=O)c(Cl)c2)c(O)c(-c2cc(N3CCNCC3)c3nn[nH]c3c2)c1
0.3 to 30 nM
5) C[C@H]1CCCN(c2cc(-c3cc(F)cc(-c4ccc(-n5ccn(C)c5=O)c(Cl)c4)c3O)ccn2)C1
300 to 3000 nM
6) CC(C)N1CC2CN(c3cc(-c4cc(F)cc(-c5ccc(-n6ccn(C)c6=O)c(Cl)c5)c4O)ccn3)CC21 (stereo not shown)
0.3 to 30 nM

Pending compound:
Entry CN1CCN(c2ccc(-c3cccc(-c4cc(CN)cc(N5CCNCC5)c4)c3O)cc2Cl)C1=O , GI50 reported as 300 to 3000 nM
